test system: Clostridium difficile; assay: growth AUC relative to DMSO control (median of replicates) (fraction); higher = more growth (less inhibition), active = hit call of the paper; conditions: 20 µM; 24 h
Measurement Kind: growth AUC
Answer field: number only, no words.

Solved entries:
{"columns": ["Query Smiles", "Experimental Target", "Endpoint Value"],
 "data": [
  ["COC(=O)C(C)(Cl)Cl", "Clostridium difficile", 1.01],
  ["COCc1c(F)c(F)c(COC(=O)[C@@H]2[C@@H](C=C(Cl)Cl)C2(C)C)c(F)c1F", "Clostridium difficile", 0.994],
  ["c1coc(-c2nc3ccccc3[nH]2)c1", "Clostridium difficile", 0.971],
  ["CCN(CC)C(=O)SCc1ccc(Cl)cc1", "Clostridium difficile", 1.02]
]}

Record `CCN(Cc1ccc(Cl)nc1)/C(=C/[N+](=O)[O-])NC` , field growth AUC: 0.981

Record `CCCCOC(=O)c1ccccc1C(=O)OCCCC` , field growth AUC: 1.02

Record `CNC(=O)Oc1cccc2c1OC(C)(C)C2` , field growth AUC: 1

Record `O=C(Nc1ccccc1-c1ccc(Cl)cc1)c1cccnc1Cl` , field growth AUC: 0.998

---

test system: Roseburia intestinalis; experiment: growth AUC relative to DMSO control (median of replicates) (fraction); higher = more growth (less inhibition), active = hit call of the paper; settings: 20 µM; 24 h
Binary classification by growth AUC, with 1 as an inclusive lower bound for satisfied; all other cases are not satisfied.

Examples with answers:
{"columns": ["Molecule", "Experimental Target", "Group"],
 "data": [
  ["CC(C)N(C(=O)CCl)c1ccccc1", "Roseburia intestinalis", "not satisfied"],
  ["CCNc1nc(NCC)nc(SC)n1", "Roseburia intestinalis", "satisfied"]
]}

Please indicate if the recorded growth AUC for CCCSP(=S)(OCC)Oc1ccc(Cl)cc1Cl (stereo not drawn) meets or exceeds 1.
satisfied

Please indicate if the recorded growth AUC for `CC(=O)O.CCCCCCCCCCCCN=C(N)N` meets or exceeds 1.
not satisfied

Please indicate if the recorded growth AUC for `CCNc1nc(NC(C)C)nc(OC)n1` meets or exceeds 1.
not satisfied

Please indicate if the recorded growth AUC for CCC(C)(NC(=O)c1cc(Cl)c(C)c(Cl)c1)C(=O)CCl (stereo not drawn) meets or exceeds 1.
not satisfied

Please indicate if the recorded growth AUC for CCC(C)c1ccccc1OC(=O)NC (stereo not drawn) meets or exceeds 1.
not satisfied

Please indicate if the recorded growth AUC for `CCc1nn(C)c(C(=O)NCc2ccc(Oc3ccc(C)cc3)cc2)c1Cl` meets or exceeds 1.
not satisfied

---

test system: Bacteroides caccae; assay: growth AUC relative to DMSO control (median of replicates) (fraction); higher = more growth (less inhibition), active = hit call of the paper; conditions: 20 µM; 24 h
Measurement Kind: growth AUC
Answer field: number only, no words.

{"columns": ["Molecule", "Endpoint Value"],
 "data": [
  ["N#Cc1c(Cl)cccc1Cl", 1.03],
  ["CCS(=O)c1c(C#N)nn(-c2c(Cl)cc(C(F)(F)F)cc2Cl)c1N (stereo not given)", 1.04],
  ["CC(C)(C)c1ccc(CSc2cnn(C(C)(C)C)c(=O)c2Cl)cc1", 0.95],
  ["CCc1cc(C)cc(CC)c1-c1c(OC(=O)C(C)(C)C)n2n(c1=O)CCOCC2", 0.906],
  ["COC(=O)Nc1cccc(OC(=O)Nc2cccc(C)c2)c1", 0.991],
  ["Oc1cc(Cl)c(Cl)cc1Cl", 0.934],
  ["CC(C)[C@H](C(=O)O[C@H](C#N)c1cccc(Oc2ccccc2)c1)c1ccc(Cl)cc1", 0.99],
  ["Cc1cc(Cl)ccc1O", 1.02]
]}

Record `Cc1ccn2nc(S(=O)(=O)Nc3c(F)cccc3F)nc2n1` , field growth AUC: 0.968

Record `O=C(O)C(F)(F)C(F)(F)C(F)(F)C(F)(F)C(F)(F)C(F)(F)F` , field growth AUC: 1.03

Record `ClC1=C(Cl)[C@]2(Cl)[C@@H]3[C@H]4C[C@H]([C@@H]5O[C@H]45)[C@@H]3[C@@]1(Cl)C2(Cl)Cl` , field growth AUC: 0.979

Record `C[C@@H](Oc1ccc(Oc2ccc(C(F)(F)F)cn2)cc1)C(=O)O` , field growth AUC: 1.04

---

tested on: Lactobacillus gasseri; test: growth AUC relative to DMSO control (median of replicates) (fraction); higher = more growth (less inhibition), active = hit call of the paper; settings: 20 µM; 24 h
Measurement Kind: growth AUC
Answer field: number only, no words.

Field growth AUC (Lactobacillus gasseri), entry `O=C(O)C(F)(F)C(F)(F)C(F)(F)C(F)(F)C(F)(F)C(F)(F)C(F)(F)C(F)(F)C(F)(F)F` : 1.01

Field growth AUC (Lactobacillus gasseri), entry CC1CNC(=S)N1 (stereo not drawn) : 0.989

Field growth AUC (Lactobacillus gasseri), entry OC(Cc1ccccc1Cl)(Cn1[nH]cnc1=S)C1(Cl)CC1 (stereo not drawn) : 1.01

Field growth AUC (Lactobacillus gasseri), entry `O=C(O)C(F)(F)C(F)(F)C(F)(F)C(F)(F)C(F)(F)C(F)(F)C(F)(F)F` : 1.01

Field growth AUC (Lactobacillus gasseri), entry CCOP(=S)(NC(C)CC)Oc1cc(C)ccc1[N+](=O)[O-] (stereo not drawn) : 0.974

Field growth AUC (Lactobacillus gasseri), entry `CCOP(=S)(OCC)Oc1cc(C)nc(N(CC)CC)n1` : 1.02

Field growth AUC (Lactobacillus gasseri), entry `CC1(C)[C@H](C=C(Cl)Cl)[C@H]1C(=O)OCc1c(F)c(F)cc(F)c1F` : 1.02

Field growth AUC (Lactobacillus gasseri), entry `COc1nn(CSP(=S)(OC)OC)c(=O)s1` : 0.987

---

Here, each record is paired with measured growth AUC data.
system: Parabacteroides distasonis; assay: growth AUC relative to DMSO control (median of replicates) (fraction); higher = more growth (less inhibition), active = hit call of the paper; settings: 20 µM; 24 h
Answer field: number only, no words.

Field growth AUC (Parabacteroides distasonis), entry `CC1=C(C(=O)Nc2ccccc2)S(=O)(=O)CCO1` : 0.975

---

Here, each record is paired with measured growth AUC data.
system: Lactobacillus paracasei; test: growth AUC relative to DMSO control (median of replicates) (fraction); higher = more growth (less inhibition), active = hit call of the paper; conditions: 20 µM; 24 h
Answer field: number only, no words.

Solved entries:
{"columns": ["Molecule", "Experimental Target", "growth AUC"],
 "data": [
  ["Oc1ccccc1-c1ccccc1", "Lactobacillus paracasei", 0.923],
  ["O=S1OCC2C(CO1)C1(Cl)C(Cl)=C(Cl)C2(Cl)C1(Cl)Cl (configuration not stated)", "Lactobacillus paracasei", 1.05],
  ["CC[C@H]1CCCC(O[C@H]2CC[C@H](N(C)C)[C@@H](C)O2)[C@@H](C)C(=O)C2=C[C@@H]3[C@@H](C=C(C)[C@@H]4C[C@@H](O[C@@H]5O[C@@H](C)[C@H](OC)[C@@H](OC)[C@H]5OC)C[C@@H]34)[C@@H]2CC(=O)O1.CC[C@H]1CCCC(O[C@H]2CC[C@H](N(C)C)[C@@H](C)O2)[C@@H](C)C(=O)C2=C[C@@H]3[C@@H](C=C[C@@H]4C[C@@H](O[C@@H]5O[C@@H](C)[C@H](OC)[C@@H](OC)[C@H]5OC)C[C@@H]34)[C@@H]2CC(=O)O1 (some centres not stated)", "Lactobacillus paracasei", 0.902],
  ["c1coc(-c2nc3ccccc3[nH]2)c1", "Lactobacillus paracasei", 0.997],
  ["OC(c1ccc(F)cc1)(c1cncnc1)c1ccccc1Cl (configuration not stated)", "Lactobacillus paracasei", 1.02],
  ["CCO/N=C(\\CC)C1=C(O)CC(c2c(C)cc(C)cc2C)CC1=O (configuration not stated)", "Lactobacillus paracasei", 0.969],
  ["CC(C)N(C(=O)CCl)c1ccccc1", "Lactobacillus paracasei", 0.946],
  ["CCc1cccc(CC)c1N(COC)C(=O)CCl", "Lactobacillus paracasei", 1.01]
]}

Field growth AUC (Lactobacillus paracasei), entry `O=C(O)C(Cl)Cl` : 1.05

Field growth AUC (Lactobacillus paracasei), entry `Oc1ccc(C(c2ccc(O)cc2)(C(F)(F)F)C(F)(F)F)cc1` : 0.727

Field growth AUC (Lactobacillus paracasei), entry `Cc1occc1C(=O)Nc1ccccc1` : 0.925

---

test system: Collinsella aerofaciens; experiment: growth AUC relative to DMSO control (median of replicates) (fraction); higher = more growth (less inhibition), active = hit call of the paper; conditions: 20 µM; 24 h
Measurement Kind: growth AUC

Solved entries:
{"columns": ["Molecule", "growth AUC"],
 "data": [
  ["O=C(O)CCCOc1ccc(Cl)cc1Cl", "0.984 (inactive)"],
  ["O=P(OCCCl)(OCCCl)OCCCl", "0.977 (inactive)"],
  ["COC(=O)C(C)(Cl)Cl", "1.01 (inactive)"],
  ["COP(=O)(OC)C(O)C(Cl)(Cl)Cl (stereo not given)", "1.01 (inactive)"],
  ["CCOC(=O)c1ccccc1S(=O)(=O)NC(=O)Nc1nc(Cl)cc(OC)n1", "0.993 (inactive)"]
]}

Please turn your attention to the following entry.
Record Cc1cnc(C2=NC(C)(C(C)C)C(=O)N2)c(C(=O)O)c1 (stereo not given) , field growth AUC: 1.02 (inactive)
